Examples of compounds with documented Bliss excess follow.
Test system: NCI-H1793 (Lung Adenocarcinoma)
Run Description: Bliss excess, mean over the matrix (fraction); higher = more synergy

- Compound: "Cn1cnc2c(F)c(Nc3ccc(Br)cc3Cl)c(C(=O)NOCCO)cc21 [Selumetinib] + CC(C)n1c(=O)n(C)c2cnc3cc(F)c(-c4ccc(OCCCN5CCCCC5)nc4)cc3c21 [AZD1390] (first compound max 10 µM, 7x7, partner max 0.3 µM)"
  System Name: "NCI-H1793 (Lung Adenocarcinoma)"
  Experimental Value: -0.0503

Next item in the queue.
Query :: Supply recorded Bliss excess for C[C@@H](c1ccc2nccn2c1)n1nnc2ncc(-c3cnn(C)c3)nc21 [Savolitinib] + CN(CC[C@H](CSC1=CC=CC=C1)NC2=C(C=C(C=C2)S(=O)(=O)NC(=O)C3=CC=C(C=C3)N4CCC(CC4)[C@H](C5=CC=CC=C5C6=CC=C(C=C6)Cl)O)S(=O)(=O)C(F)(F)F)CCO [AZD4320] (first compound max 1 µM, 7x7, partner max 1 µM) here.
Result :: -0.0329

====

Tested on: CFPAC-1 (Pancreatic Carcinoma)
Run Description: combination Emax (second highest fraction inhibited in the dose matrix, 72 h); higher = more inhibition; extreme values may be limits of the assay
Metric Name: combination Emax
Respond with the number and no other words.

Consider the following illustrative entries.
- Molecule: "Cn1cnc2c(F)c(Nc3ccc(Br)cc3Cl)c(C(=O)NOCCO)cc21 [Selumetinib] + C[C@@H]1COCCN1C2=NC(=NC(=C2)C3(CC3)[S@](=N)(=O)C)C4=C5C=CNC5=NC=C4 [AZD6738] (first compound max 10 µM, 7x7, partner max 10 µM)"
  combination Emax: 0.667
- Molecule: "COc1nnc2ccc(N3CCC(c4ccc(OCCN5CCN(C)C(=O)[C@H]5C)cc4)CC3)nn12 [AZD5153] + CC1(C)CCC(CN2CCN(c3ccc(C(=O)NS(=O)(=O)c4ccc(NCC5CCOCC5)c([N+](=O)[O-])c4)c(Oc4cnc5[nH]ccc5c4)c3)CC2)=C(c2ccc(Cl)cc2)C1 [Venetoclax] (first compound max 1 µM, 7x7, partner max 1 µM)"
  combination Emax: 0.416
- Molecule: "Cc1c2c(nn1C)CSCc1cc(n(C)n1)CSc1cc(c3ccccc3c1)OCCCc1c(C(=O)O)n(C)c3c-2c(Cl)ccc13 [AZD5991] + C[C@@H](Nc1cc(F)cc(F)c1)c1cc(C(=O)N(C)C)cc2c(=O)cc(N3CCOCC3)oc12 [AZD8186] (first compound max 1 µM, 7x7, partner max 3 µM)"
  combination Emax: 0.294
- Molecule: "COc1cccc(OCCCN)c1-c1cc(Nc2cnc(C#N)cn2)n[nH]1 [Prexasertib] + CCc1c2c(nc3ccc(O)cc13)-c1cc3c(c(=O)n1C2)COC(=O)[C@]3(O)CC [SN-38] (first compound max 1 µM, 7x7, partner max 0.3 µM)"
  combination Emax: 0.841
- Molecule: "CC(=O)c1c(C)c2cnc(Nc3ccc(N4CCNCC4)cn3)nc2n(C2CCCC2)c1=O [Palbociclib] + Cn1cnc2c(F)c(Nc3ccc(Br)cc3Cl)c(C(=O)NOCCO)cc21 [Selumetinib] (first compound max 10 µM, 7x7, partner max 10 µM)"
  combination Emax: 0.411

Query :: Supply recorded combination Emax for Cc1c2c(nn1C)CSCc1cc(n(C)n1)CSc1cc(c3ccccc3c1)OCCCc1c(C(=O)O)n(C)c3c-2c(Cl)ccc13 [AZD5991] + CN(C)CCCOc1ccc(-c2ccc3ncc4c(c3c2)n(C2CCOCC2)c(=O)n4C)cn1 [AZD0156] (first compound max 1 µM, 7x7, partner max 1 µM) here.
Result :: 0.209

Query :: Supply recorded combination Emax for Cc1c2c(nn1C)CSCc1cc(n(C)n1)CSc1cc(c3ccccc3c1)OCCCc1c(C(=O)O)n(C)c3c-2c(Cl)ccc13 [AZD5991] + C[C@@H]1COCCN1C2=NC(=NC(=C2)C3(CC3)[S@](=N)(=O)C)C4=C5C=CNC5=NC=C4 [AZD6738] (first compound max 1 µM, 7x7, partner max 10 µM) here.
Result :: 0.555

====

System: HT-29 (Colorectal Carcinoma)
Run Description: Bliss excess, mean over the matrix (fraction); higher = more synergy
Metric Name: Bliss excess
Respond with the number and no other words.

- Compound: "CN(C)CCCOc1ccc(-c2ccc3ncc4c(c3c2)n(C2CCOCC2)c(=O)n4C)cn1 [AZD0156] + O=C(c1cc(Cc2n[nH]c(=O)c3ccccc23)ccc1F)N1CCN(C(=O)C2CC2)CC1 [Olaparib] (first compound max 3 µM, partner max 3 µM)"
  Bliss excess: 0.015

Query :: Tell me its Bliss excess on HT-29 (Colorectal Carcinoma): CC1(C)CCC(CN2CCN(c3ccc(C(=O)NS(=O)(=O)c4ccc(NCC5CCOCC5)c([N+](=O)[O-])c4)c(Oc4cnc5[nH]ccc5c4)c3)CC2)=C(c2ccc(Cl)cc2)C1 [Venetoclax] + C=CCn1c(=O)c2cnc(Nc3ccc(N4CCN(C)CC4)cc3)nc2n1-c1cccc(C(C)(C)O)n1 [AZD1775] (first compound max 1 µM, partner max 1 µM)
Result :: 0.008

Query :: Tell me its Bliss excess on HT-29 (Colorectal Carcinoma): Cc1c2c(nn1C)CSCc1cc(n(C)n1)CSc1cc(c3ccccc3c1)OCCCc1c(C(=O)O)n(C)c3c-2c(Cl)ccc13 [AZD5991] + Cn1cnc2c(F)c(Nc3ccc(Br)cc3Cl)c(C(=O)NOCCO)cc21 [Selumetinib] (first compound max 1 µM, 7x7, partner max 3 µM)
Result :: -0.006

Query :: Tell me its Bliss excess on HT-29 (Colorectal Carcinoma): O=C(c1cc(Cc2n[nH]c(=O)c3ccccc23)ccc1F)N1CCN(C(=O)C2CC2)CC1 [Olaparib] + COc1nnc2ccc(N3CCC(c4ccc(OCCN5CCN(C)C(=O)[C@H]5C)cc4)CC3)nn12 [AZD5153] (first compound max 10 µM, 7x7, partner max 1 µM)
Result :: -0.0406

Query :: Tell me its Bliss excess on HT-29 (Colorectal Carcinoma): NC1(C(=O)N[C@@H](CCO)c2ccc(Cl)cc2)CCN(c2ncnc3[nH]ccc23)CC1 [Capivasertib] + C[C@@H]1COCCN1C2=NC(=NC(=C2)C3(CC3)[S@](=N)(=O)C)C4=C5C=CNC5=NC=C4 [AZD6738] (first compound max 10 µM, 7x7, partner max 10 µM)
Result :: -0.0396

Query :: Tell me its Bliss excess on HT-29 (Colorectal Carcinoma): Cc1c2c(nn1C)CSCc1cc(n(C)n1)CSc1cc(c3ccccc3c1)OCCCc1c(C(=O)O)n(C)c3c-2c(Cl)ccc13 [AZD5991] + C=CCn1c(=O)c2cnc(Nc3ccc(N4CCN(C)CC4)cc3)nc2n1-c1cccc(C(C)(C)O)n1 [AZD1775] (first compound max 1 µM, partner max 1 µM)
Result :: -0.0045

Query :: Tell me its Bliss excess on HT-29 (Colorectal Carcinoma): Cn1cnc2c(F)c(Nc3ccc(Br)cc3Cl)c(C(=O)NOCCO)cc21 [Selumetinib] + CC(C)n1c(=O)n(C)c2cnc3cc(F)c(-c4ccc(OCCCN5CCCCC5)nc4)cc3c21 [AZD1390] (first compound max 10 µM, 7x7, partner max 0.3 µM)
Result :: -0.0043

====

System: NALM-6 (B-Lymphoblastic Leukemia)
Run Description: combination Emax (second highest fraction inhibited in the dose matrix, 72 h); higher = more inhibition; extreme values may be limits of the assay
Metric Name: combination Emax
Respond with the number and no other words.

Consider the following illustrative entries.
- Molecule: "C=CCn1c(=O)c2cnc(Nc3ccc(N4CCN(C)CC4)cc3)nc2n1-c1cccc(C(C)(C)O)n1 [AZD1775] + C[C@@H]1COCCN1C2=NC(=NC(=C2)C3(CC3)[S@](=N)(=O)C)C4=C5C=CNC5=NC=C4 [AZD6738] (first compound max 1 µM, partner max 10 µM)"
  Experimental Value: 0.971
- Molecule: "COc1nnc2ccc(N3CCC(c4ccc(OCCN5CCN(C)C(=O)[C@H]5C)cc4)CC3)nn12 [AZD5153] + CC1(C)CCC(CN2CCN(c3ccc(C(=O)NS(=O)(=O)c4ccc(NCC5CCOCC5)c([N+](=O)[O-])c4)c(Oc4cnc5[nH]ccc5c4)c3)CC2)=C(c2ccc(Cl)cc2)C1 [Venetoclax] (first compound max 1 µM, 7x7, partner max 1 µM)"
  Experimental Value: 0.993
- Molecule: "C[C@@H](Oc1cc(-c2cnn(C3CCNCC3)c2)cnc1N)c1c(Cl)ccc(F)c1Cl [Crizotinib] + CC1=C(C(=CC=C1)Cl)NC(=O)C2=CN=C(S2)NC3=CC(=NC(=N3)C)N4CCN(CC4)CCO [Dasatinib] (first compound max 10 µM, 7x7, partner max 2 µM)"
  Experimental Value: 0.942
- Molecule: "COc1nnc2ccc(N3CCC(c4ccc(OCCN5CCN(C)C(=O)[C@H]5C)cc4)CC3)nn12 [AZD5153] + Cn1cnc2c(F)c(Nc3ccc(Br)cc3Cl)c(C(=O)NOCCO)cc21 [Selumetinib] (first compound max 1 µM, 7x7, partner max 10 µM)"
  Experimental Value: 0.886
- Molecule: "Cc1nc(Nc2ncc(C(=O)Nc3c(C)cccc3Cl)s2)cc(N2CCN(CCO)CC2)n1 [Dasatinib] + CC(=O)Nc1cccc(-n2c(=O)n(C3CC3)c(=O)c3c(Nc4ccc(I)cc4F)n(C)c(=O)c(C)c32)c1 [Trametinib] (first compound max 2 µM, 7x7, partner max 1 µM)"
  Experimental Value: 0.621
- Molecule: "CN(CCO)CC[C@H](CSc1ccccc1)Nc1ccc(S(=O)(=O)NC(=O)c2ccc(N3CCC([C@@H](O)c4ccccc4-c4ccc(Cl)cc4)CC3)cc2)cc1S(=O)(=O)C(F)(F)F [AZD4320] + CN(C)CCCOc1ccc(-c2ccc3ncc4c(c3c2)n(C2CCOCC2)c(=O)n4C)cn1 [AZD0156] (first compound max 1 µM, 7x7, partner max 1 µM)"
  Experimental Value: 0.973

Query :: Supply recorded combination Emax for Cc1cc2ncnn2cc1Nc1ncc2c(n1)n(C1CCOCC1)c(=O)n2C [AZD7648] + C[C@@H]1COCCN1C2=NC(=NC(=C2)C3(CC3)[S@](=N)(=O)C)C4=C5C=CNC5=NC=C4 [AZD6738] (first compound max 10 µM, 7x7, partner max 10 µM) here.
Result :: 0.932
